Items are presented alongside their recorded RBC.
organism: Rattus norvegicus; assay: Open TG-GATES - Regimen: Single; type: toxicity, organism-based, Sprague-Dawley; set-up: regimen Single, gender Male, age 6 weeks; details: in vivo, po, 100 mg/kg, 6 h, tissue Blood, route gavage, dose level Low
State the answer as a number, implicitly in x10_4/ul.

Clc1ccccc1CN1CCc2sccc2C1 ... 643.6
CCc1cc(C(N)=S)ccn1 [ETHIONAMIDE] ... 640.6

# compound O=C(O)c1cc(/N=N/c2ccc(S(=O)(=O)Nc3ccccn3)cc2)ccc1O ; its RBC = 603.2

# compound O=C(O)c1cn(C2CC2)c2cc(N3CCNCC3)c(F)cc2c1=O ; its RBC = 608.4

# compound C[C@H](CS)C(=O)N1CCC[C@H]1C(=O)O ; its RBC = 595.2

* * *

species: Rattus norvegicus; assay: Open TG-GATES - Regimen: Single; type: toxicity, organism-based, Sprague-Dawley; design: regimen Single, gender Male, age 6 weeks; details: in vivo, po, 300 mg/kg, 9 h, tissue Plasma, route gavage, dose level Middle
measure: IP
# number then unit; no other words

Worked cases, IP given:
O=C(O)c1cn(C2CC2)c2cc(N3CCNCC3)c(F)cc2c1=O [CIPROFLOXACIN] ... 10.9 mg/dL
CCc1cc(C(N)=S)ccn1 [ETHIONAMIDE] ... 10.3 mg/dL
O=C(O)c1cc(/N=N/c2ccc(S(=O)(=O)Nc3ccccn3)cc2)ccc1O [SULFASALAZINE] ... 9.3 mg/dL

Please examine the following record next.
# compound Clc1ccccc1CN1CCc2sccc2C1 [TICLOPIDINE] ; its IP = 9.8 mg/dL

* * *

species on record: Rattus norvegicus; assay: Open TG-GATES - Regimen: Daily Repeat; type: toxicity, organism-based, Sprague-Dawley; parameters: regimen Daily Repeat, gender Male, age 6 weeks; conditions: in vivo, po, 0 mg/kg, […], tissue Plasma, route gavage, dose level Control, time 14 day
Items are presented alongside their recorded K.
State the answer as a number, implicitly in meq/L.

CSc1ccc2c(c1)N(CCC1CCCCN1C)c1ccccc1S2 (centres undefined) [THIORIDAZINE] ... 4.9

Please examine the following record next.
# molecule CCc1cc(C(N)=S)ccn1 [ETHIONAMIDE] ; its K = 4.7

* * *

organism: Rattus norvegicus; experiment: Open TG-GATES - Regimen: Single; type: toxicity, organism-based, Sprague-Dawley; design: regimen Single, gender Male, age 6 weeks; settings: in vivo, po, 100 mg/kg, 24 h, tissue Plasma, route gavage, dose level Low
Items are presented alongside their recorded PL.
# number then unit; no other words

Worked cases, PL given:
Clc1ccccc1CN1CCc2sccc2C1 [TICLOPIDINE] ... 136.4 mg/dL
O=C(O)c1cn(C2CC2)c2cc(N3CCNCC3)c(F)cc2c1=O [CIPROFLOXACIN] ... 161.4 mg/dL
O=C(O)c1cc(/N=N/c2ccc(S(=O)(=O)Nc3ccccn3)cc2)ccc1O [SULFASALAZINE] ... 158.2 mg/dL
CCc1cc(C(N)=S)ccn1 [ETHIONAMIDE] ... 136 mg/dL

# molecule C[C@H](CS)C(=O)N1CCC[C@H]1C(=O)O [CAPTOPRIL] ; its PL = 147.6 mg/dL
